# tested_on: RGS4
# test_name: FCPIA: Gαo binding to RGS4
# conditions: Table 3, duplex FCPIA, average of two experiments; read-out: RGS4 IC50
pIC50: −log10 of the molar value.
reported_endpoint: pIC50

# molecule, tested_on, value_observed
data = [
    ("CC(C)Cn1c(=O)sn(C(C)(C)C)c1=O [CCG-203763]", "RGS4", 7.54),
    ("COc1ccc(-n2sc(=O)n(Cc3ccc(F)cc3)c2=O)cc1 [CCG-203735]", "RGS4", 7.96),
]

(A) Cc1ccc(-n2sc(=O)n(C)c2=O)cc1 [CCG-203759]
(B) CCCCn1c(=O)sn(C(C)(C)C)c1=O [CCG-203768]
(C) O=c1sn(-c2ccc(Cl)c(Cl)c2)c(=O)n1Cc1ccccc1 [CCG-203725]
(D) Cc1ccc(-n2sc(=O)n(Cc3ccc(Cl)c(Cl)c3)c2=O)cc1 [CCG-203743]
Exam item: # sort list by recorded pIC50, greatest to least Labels, ranked as asked.
Marked response: A, D, B, C
(A: 7.72, D: 7.47, B: 7.27, C: 7.05)

(A) O=c1sn(-c2ccccc2)c(=O)n1Cc1ccc(F)cc1 [CCG-203726]
(B) O=c1sn(-c2ccc(Cl)c(Cl)c2)c(=O)n1Cc1ccc(F)cc1 [CCG-203728]
Exam item: # query: argmin of pIC50 over A and B Give the label of your selection.
Marked response: B
(B: 7.44, A: 7.80)

Source listed as patent US8865750B2.
